B1: RIPK4 (parent)
chain: RERMELLEEAKKMEMAKFRYILPV

variants of: B1; test: protein stability index of a GFP-peptide fusion (GPS, HEK-293T) (PSI 1-6); higher = more stable; details: c terminus: a fixed tail appended;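 note: lentivirally expressed fusions sorted by FACS into six bins by GFP to DsRed ratio, PSI derived from sequencing read proportions per bin multiplied by bin number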

| Construct Sequence | protein stability index |
| --- | --- |
| RERMELLEEAKKMEMAKFLYILPV [R19L] | 2.14 |
| RERMELLEEAKKMEMAKFRYILIV [P23I] | 2.09 |
| RERMELLEEACKMEMAKFRYILPV [K11C] | 2.24 |
| RERMELLEEAKKMEMTKFRYILPV [A16T] | 2.85 |
| RERMELLEEAKKMKMAKFRYILPV [E14K] | 2.21 |
| RERMELLEEAKKMEMAKFAYILPV [R19A] | 1.96 |
| RERTELLEEAKKMEMAKFRYILPV [M4T] | 3.53 |
| RERMELLECAKKMEMAKFRYILPV [E9C] | 2.12 |
| RERMELLEEAKKMEMKKFRYILPV [A16K] | 3.8 |
| RERMELLEPAKKMEMAKFRYILPV [E9P] | 3.42 |
| RERMELLEEAKKMEMAKFRYIKPV [L22K] | 4.1 |
| RERMELLEEAKKMEMAKFRYFLPV [I21F] | 4.25 |
| RERMELLEEAKKMEMAKFRYILHV [P23H] | 2.9 |
| RERMELCEEAKKMEMAKFRYILPV [L7C] | 3.94 |
| RERMELLEEAVKMEMAKFRYILPV [K11V] | 2.32 |
| RERMELLEEASKMEMAKFRYILPV [K11S] | 3.37 |
| RERMELVEEAKKMEMAKFRYILPV [L7V] | 2.78 |
| RERMELLEEAEKMEMAKFRYILPV [K11E] | 3.97 |
| TERMELLEEAKKMEMAKFRYILPV [R1T] | 3.13 |
| RRRMELLEEAKKMEMAKFRYILPV [E2R] | 2.67 |
| RERMELLEERKKMEMAKFRYILPV [A10R] | 3.66 |
| RERMELLEEAKKMEMAKFHYILPV [R19H] | 2.6 |

These entries and their values trace back to the supplement of paper PMC10567573.
